Data origin, for the record: patent US11236083B2

# assay_target: UniProtKB Q9HBY8
# Sequence (Q9HBY8 1-367): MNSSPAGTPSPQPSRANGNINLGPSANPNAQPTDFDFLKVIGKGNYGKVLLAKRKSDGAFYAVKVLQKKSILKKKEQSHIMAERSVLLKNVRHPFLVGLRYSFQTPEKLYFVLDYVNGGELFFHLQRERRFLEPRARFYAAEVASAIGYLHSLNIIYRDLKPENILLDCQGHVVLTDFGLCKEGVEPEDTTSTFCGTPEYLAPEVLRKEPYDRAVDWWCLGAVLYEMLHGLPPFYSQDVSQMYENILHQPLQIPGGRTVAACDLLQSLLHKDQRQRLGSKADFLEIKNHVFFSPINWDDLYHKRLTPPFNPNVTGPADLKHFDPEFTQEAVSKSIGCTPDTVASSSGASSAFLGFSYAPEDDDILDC
# test_summary: Enzyme based assay for SGK2 (biotinylated Akt Substrates-2 peptide, Eu3+ Cryptate/XL665 detection)
# Format: biochemical
# condition_info: 50 μM ATP; read-out: Sgk2 (50 μM ATP)
quantity_kind: IC50
// unit must come after the numeric part

The examples below pair each entry with its known result.
{"molecule": "COc1ccc(F)c(S(=O)(=O)Nc2ccc(-c3cc(OC)c4c(N)n[nH]c4c3)cn2)c1", "IC50": "7.2 nM"}
{"molecule": "CCOc1cc(-c2ccc(NS(=O)(=O)c3cc(OC)ccc3F)cn2)cc2[nH]nc(N)c12", "IC50": "75 nM"}

Dear reader, for each entry below, please note its IC50.
1. COc1ccc(F)c(S(=O)(=O)Nc2ccc(-c3cc(OC)c4c(N)n[nH]c4n3)cc2)c1
2. COc1ccc(F)c(S(=O)(=O)Nc2ccc(-c3cc(NCC4CNCCO4)c4cn[nH]c4c3)cc2)c1 (stereo not shown)
3. COc1ccc(F)c(S(=O)(=O)Nc2ccc(-c3ccc4cn[nH]c4n3)cc2)c1
4. COc1ccc(F)c(S(=O)(=O)Nc2ccc(-c3cc(OCCN(C)C)c4c(N)n[nH]c4c3)cc2)c1
5. Nc1n[nH]c2cc(-c3ccc(NS(=O)(=O)c4cc(Cl)ccc4F)cc3)ccc12
6. COc1ccc(F)c(S(=O)(=O)Nc2ccc(-c3cc4[nH]nc(N)c4cn3)cc2)c1
7. COc1ccc(F)c(S(=O)(=O)Nc2ccc(-c3cc(O[C@@H]4CCOC4)c4c(N)n[nH]c4c3)cc2)c1

Reply |
1: 3 nM; 2: 1.7 nM; 3: 1.8 nM; 4: 9.1 nM; 5: 6.7 nM; 6: 5.5 nM; 7: 4.6 nM

====

Please respond with reported pIC50 for every item in the list.
# assay_target: Sgk1 (Homo sapiens, UniProt O00141)
# Sequence (O00141 whole entry): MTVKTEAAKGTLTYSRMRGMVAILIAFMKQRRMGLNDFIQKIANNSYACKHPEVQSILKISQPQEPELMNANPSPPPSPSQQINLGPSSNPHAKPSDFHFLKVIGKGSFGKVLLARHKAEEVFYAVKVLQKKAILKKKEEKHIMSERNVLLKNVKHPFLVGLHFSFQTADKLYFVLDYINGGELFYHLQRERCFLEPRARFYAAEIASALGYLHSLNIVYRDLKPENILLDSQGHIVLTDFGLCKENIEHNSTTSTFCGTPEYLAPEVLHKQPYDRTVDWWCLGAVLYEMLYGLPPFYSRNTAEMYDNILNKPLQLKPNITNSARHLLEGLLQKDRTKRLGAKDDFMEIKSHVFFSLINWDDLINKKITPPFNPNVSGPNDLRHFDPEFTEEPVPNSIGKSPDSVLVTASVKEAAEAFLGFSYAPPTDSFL
# test_summary: Enzyme based assay for SGK1 (biotinylated Akt Substrates-2 peptide, Eu3+ Cryptate/XL665 detection)
# Assay type: biochemical
# condition_info: 1 mM ATP; read-out: Sgk1 (1 mM ATP)
Numbers only, as −log10 of the molar value.

Please give pIC50, item by item, for the list that follows.
1. COc1ccc(F)c(S(=O)(=O)Nc2ccc(-c3cc(OC4COC4)c4c(N)n[nH]c4c3)cc2)c1
2. COCCOc1cc(-c2ccc(NS(=O)(=O)c3cc(OC)ccc3F)cn2)cc2[nH]nc(N)c12
3. COc1ccc(F)c(S(=O)(=O)Nc2ccc(-c3cc(O[C@@H]4CCOC4)c4c(N)n[nH]c4c3)cc2)c1
4. COc1ccc(F)c(S(=O)(=O)Nc2cnc(-c3ccc4c(N)n[nH]c4c3)nc2)c1

Reply |
1. 8.42
2. 7.82
3. 8.82
4. 7.21

====

# assay_target: UniProt O00141
# test_summary: Enzyme based assay for SGK1 (biotinylated Akt Substrates-2 peptide, Eu3+ Cryptate/XL665 detection)
# Assay type: biochemical
# condition_info: 50 μM ATP; read-out: Sgk1 (50 μM ATP)
quantity_kind: IC50 (nM)
Numbers only, in nM.

Answered cases to consult:
{"molecule": "COc1ccc(F)c(S(=O)(=O)Nc2ccc(-c3cc(NCC4CNCCO4)c4cn[nH]c4c3)cc2)c1 (centres unmarked)", "assay_target": "UniProt O00141", "val": 1.9}
{"molecule": "O=S(=O)(Nc1ccc(-c2ccc3cn[nH]c3c2)cc1)c1cc(Cl)ccc1F", "assay_target": "UniProt O00141", "val": 124}
{"molecule": "COc1ccc(F)c(S(=O)(=O)Nc2ccc(-c3cc4[nH]ncc4c(OCC4CNCCO4)n3)cc2)c1 (centres unmarked) [drawing 99]", "assay_target": "UniProt O00141", "val": 3.1}
{"molecule": "CCOc1cc(-c2ccc(NS(=O)(=O)c3cc(OC)ccc3F)cc2)nc2[nH]nc(N)c12", "assay_target": "UniProt O00141", "val": 16.2}

Proceeding to the next molecule to report its IC50.
Ask | Would you kindly share the measured IC50 for `COc1ccc(F)c(S(=O)(=O)Nc2ccc(-c3cc4c5c(n[nH]c5c3)NC(=O)CN4)cc2)c1` ?
Reply | 4.8

====

# assay_target: Sgk2 (Homo sapiens, UniProt Q9HBY8)
# test_summary: Enzyme based assay for SGK2 (biotinylated Akt Substrates-2 peptide, Eu3+ Cryptate/XL665 detection)
# Type: biochemical
# condition_info: 50 μM ATP; read-out: Sgk2 (50 μM ATP)
quantity_kind: IC50

# count of solved cases: 4
{"compound": "COc1ccc(F)c(S(=O)(=O)Nc2ccc(-c3cc4c5c(n[nH]c5c3)NC(=O)CN4)cc2)c1", "IC50": "3.4 nM"}
{"compound": "COc1ccc(F)c(S(=O)(=O)Nc2ccc(-c3cc(O[C@@H]4CCOC4)c4c(N)n[nH]c4c3)nc2)c1", "IC50": "4 nM"}
{"compound": "COc1ccc(F)c(S(=O)(=O)Nc2ccc(-c3cc(O[C@H]4CCOC4)c4c(N)n[nH]c4c3)nc2)c1", "IC50": "14.6 nM"}
{"compound": "COc1ccc(F)c(S(=O)(=O)Nc2ccc(-c3cc(OC)c4c(N)n[nH]c4c3)nc2)c1", "IC50": "5 nM"}

Parameter requested: IC50. Apply to each item below.
1. Cc1n[nH]c2nc(-c3ccc(NS(=O)(=O)c4cc(Cl)ccc4F)cc3)ccc12
2. COc1ccc(F)c(S(=O)(=O)Nc2ccc(-c3cc(OC)c4c(N)n[nH]c4c3)cc2)c1 [drawing 108]
3. COc1ccc(F)c(S(=O)(=O)Nc2ccc(-c3cc(C)c4c(N)n[nH]c4n3)cc2)c1 [drawing 111]

Reply |
1: 5.9 nM; 2: 5.1 nM; 3: 4.1 nM

====

# assay_target: Sgk2 (Homo sapiens, UniProt Q9HBY8)
# Sequence (Q9HBY8 1-367): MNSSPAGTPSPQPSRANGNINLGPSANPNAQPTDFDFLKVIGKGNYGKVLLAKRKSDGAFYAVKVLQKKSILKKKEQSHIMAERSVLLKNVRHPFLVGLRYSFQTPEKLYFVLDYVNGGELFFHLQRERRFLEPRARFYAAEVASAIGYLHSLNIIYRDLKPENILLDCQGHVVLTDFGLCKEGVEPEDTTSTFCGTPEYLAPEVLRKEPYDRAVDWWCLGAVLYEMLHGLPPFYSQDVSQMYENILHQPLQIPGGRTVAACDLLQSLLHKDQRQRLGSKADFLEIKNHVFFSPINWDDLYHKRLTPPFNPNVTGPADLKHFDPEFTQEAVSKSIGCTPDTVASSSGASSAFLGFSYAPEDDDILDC
# test_summary: Enzyme based assay for SGK2 (biotinylated Akt Substrates-2 peptide, Eu3+ Cryptate/XL665 detection)
# Assay type: biochemical
# condition_info: 50 μM ATP; read-out: Sgk2 (50 μM ATP)
Provide the reported pIC50 of each item.
Give bare numbers, as −log10 of the molar value.

{"compound": "O=S(=O)(Nc1ccc(-c2ccc3cn[nH]c3c2)cc1)c1cc(Cl)ccc1F", "pIC50": 7.49}
{"compound": "COc1ccc(F)c(S(=O)(=O)Nc2ccc(-c3cc(CCC4CNCCO4)c4cn[nH]c4c3)cc2)c1 (stereo not drawn)", "pIC50": 8.39}
{"compound": "Nc1n[nH]c2cc(-c3ccc(NS(=O)(=O)c4cccc(Cl)c4Cl)cn3)ccc12", "pIC50": 7.77}

Fill in pIC50 for each of the 5 compounds listed.
1. COc1ccc(F)c(S(=O)(=O)Nc2ccc(-c3cc(OCC(C)(C)O)c4c(N)n[nH]c4c3)cc2)c1
2. COc1ccc(F)c(S(=O)(=O)Nc2ccc(-c3cc4[nH]ncc4cn3)cc2)c1
3. COCCOc1cc(-c2ccc(NS(=O)(=O)c3cc(OC)ccc3F)cc2)nc2[nH]nc(N)c12
4. COCCOc1cc(-c2ccc(NS(=O)(=O)c3cc(OC)ccc3F)cc2)cc2[nH]nc(N)c12
5. CCOc1cc(-c2ccc(NS(=O)(=O)c3cc(OC)ccc3F)cc2)cc2[nH]nc(N)c12

Reply |
7.42
8.01
8.02
8.10
7.91
